Listing of IC50 toward Fatty-acid amide hydrolase 1 (Homo sapiens, UniProt O00519), each taken from a published source.

Worked cases, answers included:
O=C(O)c1ccn(C(=O)N2CCN(Cc3cccc(Oc4ccc(C(F)(F)F)cn4)c3)CC2)n1 ... 100 to 1000 nM
O=C(OC(C(F)(F)F)C(F)(F)F)N1Cc2cccc(Br)c2C1 ... > 1000 nM
COc1cc(NC(=O)C(=O)c2cc(C)n(Cc3ccc(Cl)cc3Cl)c2C)ccn1 ... 1010 nM

Q: Need IC50 of O=C(OC(C(F)(F)F)C(F)(F)F)N1CCc2ccccc2[C@@H]1c1ccccc1 , thanks.
Result: > 1000 nM

Q: Tell me the measured IC50 of O=C(O)c1cccc(-c2cnc(C(=O)CCc3ccc(COc4ccccc4)cc3)o2)n1 , please.
Result: 1 nM

Q: Which IC50 is listed for O=C(O)c1nn(C(=O)N2CC3CN(Cc4cccc(Oc5ccc(Cl)cc5)c4)CC3C2)cc1Cl (stereo not drawn) ?
Result: 100 to 1000 nM

Q: // returns reported IC50 for input COC(=O)c1cccc(-c2cnc(C(=O)CCc3ccc(Oc4ccccc4)cc3)o2)n1
Result: 2 nM

Q: Look up IC50: Cc1cc(C(=O)C(=O)Nc2ccncc2)c(C)n1Cc1ccc(Cl)cc1
Result: 3400 nM
